Tested on: MS2 coat protein
method description: apparent Kd, MS2 coat protein; higher = weaker binding; RNA-MaP array
recorded conditions: ligand present: tryptophan; designed as: ON switch for tryptophan
property name: apparent Kd (nM)
State just the number; it will be interpreted in nM.

| record sequence | measured target | readout unit | number |
| --- | --- | --- | --- |
| GGCUACAUGAGGAUCACCCAUGUUUCUCGUCGAGGACCGGUACGGCCGCCACUCGUUGUUGGGACUCAGUAUCAGUCGUUAGUUU | MS2 coat protein | nM | 57 |

Problem: Fill in: apparent Kd of "CACUACAUGAGGAUCACCCAUGUAUACUGACGAGGACCGGUACGGCCGCCACUCGAACCGAAACCGACUUCAUUCUGUGUACCAU" is ___
Result: 16.2

Problem: Fill in: apparent Kd of "GCGUUGGCCACGGCCGCCACUCAGGUACCGCGCGUAGUGAACUUACAUGAGGAUCACCCAUGUCUGAGGACCGGGUGGCCGCCAC" is ___
Result: 46.2

Problem: Fill in: apparent Kd of "UGGUACAUGAGGAUCACCCAUGUCCUCAUCCGAGGACCGGUACGGCCGCCACUCGAAAUUGCGAUCGGCACAAAACAAAUGCUUG" is ___
Result: 143

Problem: Fill in: apparent Kd of "UAGCAUAGUACGGCCGCCACUCCUGGUUCCCGGCCGUGUGUAAGACAUGAGGAUCACCCAUGUAGGAGGACCGGGUAUCGCUUGC" is ___
Result: 15.2

* * *

Each record here notes measured apparent Kd.
Tested on: MS2 coat protein
method description: apparent Kd, MS2 coat protein; higher = weaker binding; RNA-MaP array
recorded conditions: designed as: OFF switch for flavin mononucleotide; no ligand

# example entries with known answers
| record sequence | measured target | apparent Kd |
| --- | --- | --- |
| CUGAAGUCUGACCCUCGAAACAUGAGGAUCACCCAUGUAGUCAGAAGGCGAUUGUGAGCAGGAAUCGAGGAUAUGAACUAGUUU | MS2 coat protein | 0.00772 µM |
| AGUUGAGGAGGAUAUACAUGAGGAUCACCCAUGUGACUGUGUCUGUUGCGCUGGAUCGGUAGAAGGCCUUAGUA | MS2 coat protein | 0.0122 µM |
| CGGAUUUGGUAGAAGGUUUCGUCACAUAUCGCAAAAGGAUAUACUAAACAUGAGGAUCACCCAUGUGUCGUGGGAGUUAAUUCA | MS2 coat protein | 0.0723 µM |
| CAAUGGACGGUAGGAUAUGUACUAGAGAAGCAGACAGAAGGACCUAGUCCGACAUGAGGAUCACCCAUGUGAAACCCGGUCCAG | MS2 coat protein | 0.00683 µM |
| UGCCCAAACAUGAGGAUCACCCAUGUUGUGACCUCGGGAGCCAGAAGGGUAUUAAACAAGUCGGUACAGGAUAUGGUCUAGUAA | MS2 coat protein | 0.343 µM |

Problem: Fill in: apparent Kd of "GUGAAACAUGAGGAUCACCCAUGUUAGGAUAUAGGUAACCUAGUACAUGAUCUGCUGGCUAGAAGGAACUGGAU" is ___
Result: 0.0142 µM

Problem: Fill in: apparent Kd of "GAUCAACAUGAGGAUCACCCAUGUCAGGAUAUGCAGACAGUCUUUACGUCAGUCGUAAGCAGAAGGGACUACGG" is ___
Result: 0.0525 µM
